target: T1, cynomolgus monkey IL-6 (Macaca fascicularis, UniProt P79341); experiment: Surface plasmon resonance (Biacore), cynomolgus monkey IL-6; type: binding; conditions: cy/cyno; periplasmic fractions, 29B11 chain shuffled
T1 construct: His
T1 sequence (P79341 28-212): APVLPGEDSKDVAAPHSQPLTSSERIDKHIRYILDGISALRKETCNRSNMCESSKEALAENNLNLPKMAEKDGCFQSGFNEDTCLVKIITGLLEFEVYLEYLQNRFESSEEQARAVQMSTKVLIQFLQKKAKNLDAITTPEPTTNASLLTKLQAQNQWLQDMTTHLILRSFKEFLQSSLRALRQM
reported endpoint: KA
Be sure to follow the number with its unit.

Need KA of 55E2b: 29B11 chain shuffled Fab, periplasmic fraction (antibody, V domains shown) VH: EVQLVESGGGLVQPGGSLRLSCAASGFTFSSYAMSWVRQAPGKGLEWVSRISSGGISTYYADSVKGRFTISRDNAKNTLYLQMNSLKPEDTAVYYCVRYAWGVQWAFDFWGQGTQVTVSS VL: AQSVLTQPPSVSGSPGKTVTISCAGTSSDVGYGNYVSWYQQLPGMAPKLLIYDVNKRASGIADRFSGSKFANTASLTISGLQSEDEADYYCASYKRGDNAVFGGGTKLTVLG , thanks.
1.39e+09 M⁻¹
